I'd appreciate it if you could supply TGI values for the items below.
System: COLO 205 colon
Test: NCI tumour cell line growth inhibition, 48 h

Examples with their reported TGI follow.
CC(C)[Si]1(C(C)C)OCC2OC3(CO)C(Oc4nc(=O)ccn43)C2O[Si](C(C)C)(C(C)C)O1 (stereo not drawn)    22 µM
CN(C)C(=S)Sc1ccc([N+](=O)[O-])cc1[N+](=O)[O-]    3.02 µM
O=c1[nH]c2ccc(O)cc2o1    > 100 µM
CCSC1=N/C(=C\c2ccc(N(C)C)cc2)C(Cl)=N1    > 100 µM
CCOC(=O)c1ccc(N=Nc2cc(C(=O)OCC)ccc2O)cc1    > 100 µM

Each compound below has a reported value. Please supply its TGI.
1. NCC(=O)Nc1ccc(S(=O)(=O)O)c2cc(S(=O)(=O)O)cc(S(=O)(=O)O)c12
2. COC(=O)c1cc2c(s1)-c1nccc3c1c(nc1ccccc13)C2=O
3. CC1(C)N=C(N)N=C(N)N1c1ccc(CCCCc2ccc(Cl)c(S(=O)(=O)F)c2)c(Cl)c1

Response line:
["> 100 µM", "> 100 µM", "7.98 µM"]

---

What TGI was measured for each of the following?
Test system: A498 renal
Assay: NCI tumour cell line growth inhibition, 48 h
Give bare numbers, in µM.

COC(=O)C1=CN(CC2=CC(=O)C(C)=CC2=O)C=C(C(=O)OC)C1c1cccc(OC)c1    34.6
CN(C)C(=S)Sc1ccc([N+](=O)[O-])cc1[N+](=O)[O-]    22
FC(F)(F)c1ccc2c(c1)nc(-c1ccc(Cl)cc1)n2CC1CCCN2CCCCC12 (stereo not given)    27.5

Query compound follows.
Prompt line: Need TGI of O=C(Nc1ccc([N+](=O)[O-])cc1[N+](=O)[O-])C(=O)C(C(=O)c1ccc2ccccc2c1)C1OC(=O)c2ccccc21 (stereo not given) , thanks.
Response line: 52.7

---

Exercise: for every item that follows, state its recorded TGI.
Test system: SK-MEL-5 melanoma
Assay: NCI tumour cell line growth inhibition, 48 h

C#Cc1nc(Nc2cc(C)[nH]n2)c2ccccc2n1    0.28 µM
CS(=O)(=O)Nc1cc(-c2ccc3ncnc(Nc4c(Cl)ccc5c4OCO5)c3c2)cnc1Cl    0.465 µM
C=CCN(C(=O)CNC(=O)C(F)(F)F)c1cc(OCc2ccccc2)c2c(c1)c(C)cn2S(=O)(=O)c1ccccc1    > 100 µM
CCSC1=N/C(=C\c2ccc(N(C)C)cc2)C(Cl)=N1    > 100 µM
C[C@H]1C(=O)O[C@@H]2CCN3CC=C(COC(=O)[C@](C)(O)[C@@]1(C)O)[C@H]23    > 100 µM

Dear colleague, could you send me TGI for each of the items below? Thanks.
1. COC1CCCCN1C(=O)c1ccccc1 (stereo not given)
2. Cn1c2c(c3ccccc31)CCN1C(=O)CN(C(=O)C3CCCCC3)CC21 (stereo not given)
3. COC12OCCN(C)C1=CC(=O)C1=NNC(C)C12 (stereo not given)
4. COC(=O)C(C(=O)Cc1ccccc1[N+](=O)[O-])C(=O)OC

Response line:
1: > 25.3 µM; 2: > 100 µM; 3: > 100 µM; 4: > 100 µM

Prompt line: Which TGI reading was recorded for the compound `C=COC(=O)N[C@H]1CCc2cc(OC)c(OC)c(OC)c2-c2ccc(SC)c(=O)cc21` ?
Response line: 0.097 µM
